# system tested: T1, human GLP-1 receptor (human, UniProt P43220 24-463)
# T1 construct: whole, on cells; Used as crude membranes of stably transfected HEK293 cells; also called hGLP1R; hGLP-1R
# assay method text: SPA, [125I]-GLP-1 displacement, hGLP-1R membranes
Provide the reported pKi of each item.
Numbers only, as −log10 of the molar value.

Observe how each entry below is paired with its result.
binder="YXEGTFTSDYSXLLDKKAQXAFIEYLIEGGPSSGAPPPS (Aib2; D-Ile12; K17((2-[2-(2-Amino-ethoxy)-ethoxy]-acetyl)2-(γ-Glu)-CO-(CH2)18-CO2H); Aib20; C-terminal NH2) [Example 82]" numeric_result=8.17
binder="YXEGTXTSDYSIXLDEKAQXEFISYLIEGGPSSGAPPPS (Aib2; αMeF(2F)6; αMeL13; K17((2-[2-(2-Amino-ethoxy)-ethoxy]-acetyl)2-(γ-Glu)-CO-(CH2)18-CO2H); Aib20; C-terminal NH2) [Example 150]" numeric_result=7.52
binder="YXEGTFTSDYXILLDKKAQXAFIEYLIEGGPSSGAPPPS (Aib2; D-Ser11; K17((2-[2-(2-Amino-ethoxy)-ethoxy]-acetyl)2-(γ-Glu)-CO-(CH2)18-CO2H); Aib20; C-terminal NH2) [Example 81]" numeric_result=8.54
binder="HXEGTFTSDYSIXLDKKAQXAFIEYLIEGGPSSGAPPPS (Aib2; αMeL13; K17((2-[2-(2-Amino-ethoxy)-ethoxy]-acetyl)2-(γ-Glu)-CO-(CH2)18-CO2H); Aib20; C-terminal NH2) [Example 53]" numeric_result=8.91
binder="YXEGTXTSDXSIXLDKKAQXEFIXYLIEGGPSSGAPPPS (Aib2; αMeF(2F)6; 4Pal10; αMeL13; K17((2-[2-(2-Amino-ethoxy)-ethoxy]-acetyl)2-(γ-Glu)-CO-(CH2)18-CO2H); Aib20; D-Glu24; C-terminal NH2) [Example 203]" numeric_result=8.41
binder="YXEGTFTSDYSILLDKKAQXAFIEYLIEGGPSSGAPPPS (Aib2; K17((2-[2-(2-Amino-ethoxy)-ethoxy]-acetyl)2-(γ-Glu)-CO-(CH2)18-CO2H); Aib20; C-terminal NH2) [Example 8]" numeric_result=8.55

Could you report pKi for every entry in the following list?
1. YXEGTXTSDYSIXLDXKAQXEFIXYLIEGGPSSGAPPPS (Aib2; αMeF(2F)6; αMeL13; Orn16; K17((2-[2-(2-Amino-ethoxy)-ethoxy]-acetyl)2-(γ-Glu)-CO-(CH2)16-CO2H); Aib20; D-Glu24; C-terminal NH2) [Example 2]
2. FXEGTXTSDYSIXLDEKAQXAFIEYLIEGGPSSGAPPPS (Aib2; αMeF6; αMeL13; K17((2-[2-(2-Amino-ethoxy)-ethoxy]-acetyl)2-(γ-Glu)-CO-(CH2)18-CO2H); Aib20; C-terminal NH2) [Example 119]
3. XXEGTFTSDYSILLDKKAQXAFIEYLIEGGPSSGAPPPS (D-Tyr1; Aib2; K17((2-[2-(2-Amino-ethoxy)-ethoxy]-acetyl)2-(γ-Glu)-CO-(CH2)18-CO2H); Aib20; C-terminal NH2) [Example 78]

a:
8.63
8.01
8.40
